test system: HEK293FT dCK*-IKZF1; assay: relative growth recovery (pomalidomide 10 uM = 100%, DMSO = 0%); higher = more growth rescue (IKZF1 fusion degradation); settings: compound concentration: 5 uM; AraC concentration: 0.3 uM; overnight pretreatment + 4 days AraC
Below is a list of entries, each paired with its recorded relative growth recovery value.
Provide the reading as a plain figure in %.

The following molecules have reported results that may help.
>  <molecule>
COc1cc([C@@H]2c3cc4c(cc3[C@H](O)[C@H]3COC(=O)C23)OCO4)cc(OC)c1OC (stereo partly drawn)

>  <measured.quantity>
relative growth recovery

>  <reading>
-12.1

$$$$
>  <molecule>
CCCCCCCCCCCCCCCC[n+]1ccccc1

>  <measured.quantity>
relative growth recovery

>  <reading>
-13

$$$$
>  <molecule>
COc1cc([C@@H]2c3cc4c(cc3[C@H](O)[C@H]3COC(=O)[C@H]23)OCO4)cc(OC)c1OC

>  <measured.quantity>
relative growth recovery

>  <reading>
-11.7

$$$$
>  <molecule>
C[C@]12CC[C@H](O)C[C@H]1CC[C@@H]1[C@@H]2C[C@@H](O)[C@]2(C)[C@@H](C3=CC(=O)OC3)CC[C@]12O

>  <measured.quantity>
relative growth recovery

>  <reading>
-10.9

$$$$
>  <molecule>
O=C(CCCN1CCC2(CC1)C(=O)NCN2c1ccccc1)c1ccc(F)cc1

>  <measured.quantity>
relative growth recovery

>  <reading>
-0.995

$$$$
>  <molecule>
CC(=O)OC[C@]12CCC(C)=C[C@H]1O[C@@H]1[C@H](O)[C@@H](OC(C)=O)[C@@]2(C)[C@@]12CO2

>  <measured.quantity>
relative growth recovery

>  <reading>
-12.7

$$$$

In: For the record Cc1cc(C(C#N)c2ccc(Cl)cc2)c(Cl)cc1NC(=O)c1cc(I)cc(I)c1O (stereo not drawn) , what value of relative growth recovery is listed for HEK293FT dCK*-IKZF1?
Out: -0.555

In: Follow-up entry: COC(=O)[C@@]12OC[C@]34[C@H]([C@@H](O)[C@@H]1O)[C@@]1(C)CC(=O)C(O)=C(C)[C@@H]1C[C@H]3OC(=O)[C@H](OC(=O)/C=C(\C)C(C)C)[C@@H]24 [Bruceantin]
Out: -12.3

* * *

tested on: HEK293FT dCK*-IKZF1; test: relative growth recovery (pomalidomide 10 uM = 100%, DMSO = 0%); higher = more growth rescue (IKZF1 fusion degradation); conditions: compound concentration: 5 uM; AraC concentration: 0.3 uM; overnight pretreatment + 4 days AraC
Below is a list of entries, each paired with its recorded relative growth recovery value.
Provide the reading as a plain figure in %.

>  <compound>
O=c1[nH]c2ccccc2n1CCCN1CCC(n2c(=O)[nH]c3cc(Cl)ccc32)CC1

>  <reading>
2.7

$$$$

In: # query: relative growth recovery of entry O=[N+]([O-])c1cc(O)c(O)c([N+](=O)[O-])c1
Out: 0.23

In: Follow-up entry: c1ccc2c(c1)sc1ccccc12
Out: 1.72

In: Follow-up entry: COC[C@H]1OC(=O)c2coc3c2[C@@]1(C)C1=C(C3=O)[C@@H]2CCC(=O)[C@@]2(C)C[C@H]1OC(C)=O [Wortmannin]
Out: 1.92

In: Follow-up entry: O=C(Nc1ccc(Br)cc1)c1cc(Br)cc(Br)c1O [tribomsalan]
Out: -2.67
